- Tested on: HL-60
- measurement notes: Antiproliferative activity against human HL60 cells after 72 hrs by XTT assay
- Type: functional, cell-based
- assay context: HL-60, 72 h
Catalogue of pIC50 readings, one per entry.
The quantity pIC50 is defined as the negative base-10 logarithm of the molar concentration.

What does the record list as pIC50 for CC(C)=CCC[C@]1(C)C2=CCC[C@](C)(CC(=O)c3ccoc3)[C@H]2CC[C@H]1C ?
4.24

Give the measured pIC50 of C=C(C)CCC[C@]1(C)C2=CCC[C@](C)(C[C@H](OC(C)=O)C3=CC(=O)OC3O)[C@H]2CC[C@H]1C (some centres not stated) .
5.52

Record request: pIC50 value, item C=C(C)CCC[C@]1(C)C2=CCC[C@](C)(C[C@@H](O)c3ccoc3)[C@H]2CC[C@H]1C
4.51

Data request, read-out pIC50, for COC/C=C(\C)CC[C@]1(C)C2=C(CC[C@H]1C)C1(C)CCC2[C@@](O)(C2=CC(=O)OC2O)C1 (some centres not stated)
4.73

Give the measured pIC50 of C=C(C)CC[C@]1(C)C2=CCC[C@](C)(C[C@H](O)c3ccoc3)[C@H]2CC[C@H]1C .
4.54

// query pIC50 value for entry C=C(C)CCC[C@]1(C)C2=CCC[C@](C)(C[C@H](O)c3ccoc3)[C@H]2CC[C@H]1C
4.51

###

- System: HL-60
- measurement notes: Antiproliferative activity against human HL60 cells after 72 hrs by XTT assay
- Format: functional, cell-based
- assay context: HL-60, 72 h
pIC50 by entry:
pIC50 here is simply -log10 of the concentration when that concentration is written in mol/L.

C=C(C)CCC[C@]1(C)C2=CCC[C@](C)(C[C@@H](O)C3=CC(=O)OC3O)[C@H]2CC[C@H]1C (stereo partly drawn); 5.49
C=C(C)CCC[C@]1(C)C2=CCC[C@](C)(C[C@H](O)C3=CC(=O)OC3O)[C@H]2CC[C@H]1C (stereo partly drawn); 5.52
C=C(C)CC[C@]1(C)C2=CCC[C@](C)(C[C@@H](OC(C)=O)C3=CC(=O)OC3O)[C@H]2CC[C@H]1C (stereo partly drawn); 5.48
C=C(C)CC[C@]1(C)C2=CCC[C@](C)(C[C@H](O)C3=CC(=O)OC3O)[C@H]2CC[C@H]1C (stereo partly drawn); 5.49
C=C(C)CC[C@]1(C)C2=CCC[C@](C)(C[C@@H](O)c3ccoc3)[C@H]2CC[C@H]1C; 4.54
C=C(C)CC[C@]1(C)C2=CCC[C@](C)(C[C@@H](O)C3=CC(=O)OC3O)[C@H]2CC[C@H]1C (stereo partly drawn); 5.48
C=C(C)CCC[C@]1(C)C2=C(CC[C@H]1C)C1(C)CCC2[C@@](O)(C2=CC(=O)OC2O)C1 (stereo partly drawn); 6.52

Shift focus to the following entry.
API: value(readout=pIC50, system=HL-60) for record C=C(C)CCC[C@]1(C)C2=CCC[C@](C)(C[C@@H](OC(C)=O)C3=CC(=O)OC3O)[C@H]2CC[C@H]1C (stereo partly drawn)
5.49

###

List of pIC50 values.
- Tested on: A549
- measurement notes: Antiproliferative activity against human A549 cells after 72 hrs by XTT assay
- Format: functional, cell-based
- assay context: A549, 72 h
Field pIC50 (float): negative decimal logarithm of the concentration in molar.

C=C(C)CC[C@]1(C)C2=CCC[C@](C)(C[C@@H](O)c3ccoc3)[C@H]2CC[C@H]1C; 4.47
C=C(C)CCC[C@]1(C)C2=CCC[C@](C)(C[C@H](O)C3=CC(=O)OC3O)[C@H]2CC[C@H]1C (stereo partly specified); 5.49
C=C(C)CC[C@]1(C)C2=CCC[C@](C)(C[C@H](O)c3ccoc3)[C@H]2CC[C@H]1C; 4.47
C=C(C)CCC[C@]1(C)C2=CCC[C@](C)(C[C@H](O)c3ccoc3)[C@H]2CC[C@H]1C; 4.18

--- query ---
Look up pIC50: C=C(C)CC[C@]1(C)C2=CCC[C@](C)(C[C@H](O)C3=CC(=O)OC3O)[C@H]2CC[C@H]1C (stereo partly specified)
5.35
